Measured Kd, listed per entry.
# MEASUREMENT TARGET: T1, soluble human FcRn (shFcRn) (human, UniProt P55899 24-297; P61769 21-119)
# T1 construct: Biotinylated for the ELISA, amine-coupled to a CM5 chip for SPR; also called biotinylated shFcRn
# T1 sequence (P55899 24-297 limits assumed, chain 1 of 2): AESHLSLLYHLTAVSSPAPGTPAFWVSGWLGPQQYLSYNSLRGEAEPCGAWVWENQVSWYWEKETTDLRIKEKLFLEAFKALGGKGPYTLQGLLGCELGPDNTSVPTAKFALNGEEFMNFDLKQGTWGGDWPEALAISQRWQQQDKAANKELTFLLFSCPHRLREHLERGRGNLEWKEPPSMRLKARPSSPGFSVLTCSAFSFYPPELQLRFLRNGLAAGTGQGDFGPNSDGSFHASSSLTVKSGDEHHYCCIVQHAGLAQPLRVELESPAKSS
# T1 sequence (P61769 21-119 limits assumed, chain 2 of 2): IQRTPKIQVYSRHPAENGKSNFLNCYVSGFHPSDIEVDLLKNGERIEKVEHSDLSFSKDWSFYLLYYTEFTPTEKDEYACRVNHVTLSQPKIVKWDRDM
# MEASUREMENT PROTOCOL: SPR pH 6
Bridge positions count the residues as written; N and C are the ends. Square brackets hold non-standard residues; d marks the D form. Ends that are not written are not given here. Pen = CC(C)(S)[C@H](N)C(=O)O; NMeA = CN[C@@H](C)C(=O)O
Only the number, expressed in nM, is required.

Solved cases (2 shown):
>>> reported_value("QRF[Pen][NMeA]GHFGGLYPCNGP-NH2 (disulfide 4-14; N-terminus assumed; SMILES CC(C)C[C@@H]1NC(=O)CNC(=O)CNC(=O)[C@H](Cc2ccccc2)NC(=O)[C@H](Cc2c[nH]cn2)NC(=O)CNC(=O)[C@H](C)N(C)C(=O)[C@@H](NC(=O)[C@H](Cc2ccccc2)NC(=O)[C@H](CCCNC(=N)N)NC(=O)[C@@H](N)CCC(N)=O)C(C)(C)SSC[C@@H](C(=O)N[C@@H](CC(N)=O)C(=O)NCC(=O)N2CCC[C@H]2C(N)=O)NC(=O)[C@@H]2CCCN2C(=O)[C@H](Cc2ccc(O)cc2)NC1=O) [Peptide No. 213]")
1000
>>> reported_value("QRF[Pen]HGHFGGLYPCNGP-NH2 (disulfide 4-14; N-terminus assumed; SMILES CC(C)C[C@@H]1NC(=O)CNC(=O)CNC(=O)[C@H](Cc2ccccc2)NC(=O)[C@H](Cc2c[nH]cn2)NC(=O)CNC(=O)[C@H](Cc2c[nH]cn2)NC(=O)[C@@H](NC(=O)[C@H](Cc2ccccc2)NC(=O)[C@H](CCCNC(=N)N)NC(=O)[C@@H](N)CCC(N)=O)C(C)(C)SSC[C@@H](C(=O)N[C@@H](CC(N)=O)C(=O)NCC(=O)N2CCC[C@H]2C(N)=O)NC(=O)[C@@H]2CCCN2C(=O)[C@H](Cc2ccc(O)cc2)NC1=O) [Peptide No. 296]")
150

Here is the next item to consider.
Asked: For QRF[Pen]GGHFGGLYPCNGP-NH2 (disulfide 4-14; N-terminus assumed; SMILES CC(C)C[C@@H]1NC(=O)CNC(=O)CNC(=O)[C@H](Cc2ccccc2)NC(=O)[C@H](Cc2c[nH]cn2)NC(=O)CNC(=O)CNC(=O)[C@@H](NC(=O)[C@H](Cc2ccccc2)NC(=O)[C@H](CCCNC(=N)N)NC(=O)[C@@H](N)CCC(N)=O)C(C)(C)SSC[C@@H](C(=O)N[C@@H](CC(N)=O)C(=O)NCC(=O)N2CCC[C@H]2C(N)=O)NC(=O)[C@@H]2CCCN2C(=O)[C@H](Cc2ccc(O)cc2)NC1=O) [Peptide No. 195] , what is its reported Kd?
Given back: 760
